target under test: UniProt:Q96SW2
Sequence (Q96SW2 whole entry, species assumed): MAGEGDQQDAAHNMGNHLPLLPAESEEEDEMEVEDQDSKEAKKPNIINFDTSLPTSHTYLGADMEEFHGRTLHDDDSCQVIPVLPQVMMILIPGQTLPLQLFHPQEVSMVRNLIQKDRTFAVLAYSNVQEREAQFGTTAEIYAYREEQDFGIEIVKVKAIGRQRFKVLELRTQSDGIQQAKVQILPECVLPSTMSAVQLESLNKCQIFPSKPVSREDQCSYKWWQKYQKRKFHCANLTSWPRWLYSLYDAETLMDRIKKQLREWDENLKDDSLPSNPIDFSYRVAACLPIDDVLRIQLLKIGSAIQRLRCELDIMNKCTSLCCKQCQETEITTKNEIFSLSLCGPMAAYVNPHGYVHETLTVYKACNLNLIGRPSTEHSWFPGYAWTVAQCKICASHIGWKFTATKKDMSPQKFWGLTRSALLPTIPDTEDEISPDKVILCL
procedure details: Kd and % inhibition from FI
Format: binding
details: read-out: % inhibition @ 200 uM from *FI
List of inhibition at 200 µM values.
# answer = value followed by unit

| molecule | inhibition at 200 µM |
| --- | --- |
| O=C1CCC(N2Cc3c(NC(=O)CCCCCC(=O)Nc4cccc5c4CN(C4CCC(=O)NC4=O)C5=O)cccc3C2=O)C(=O)N1 (stereo not shown) | 71.6% |
| O=C(/C=C/c1cccc2c1CN(C1CCC(=O)NC1=O)C2=O)NCCOCCOCCNC(=O)/C=C/c1cccc2c1CN(C1CCC(=O)NC1=O)C2=O (stereo not shown) | 72% |

**Query** Form field: inhibition at 200 µM recorded for O=C(COc1cccc2c1C(=O)N(C1CCC(=O)NC1=O)C2=O)NCCOCCOCCNC(=O)COc1cccc2c1C(=O)N(C1CCC(=O)NC1=O)C2=O (stereo not shown) with UniProt:Q96SW2 (enter value)
**Result** 68.2%

**Query** Form field: inhibition at 200 µM recorded for O=C1CCC(N2Cc3c(CCCOCCOCCCc4cccc5c4CN(C4CCC(=O)NC4=O)C5=O)cccc3C2=O)C(=O)N1 (stereo not shown) with UniProt:Q96SW2 (enter value)
**Result** 70.2%
